Measured pKi on Carbonic anhydrase 2 (Homo sapiens) follows.
Lab note — pKi values are minus log10 of concentrations in M.

NS(=O)(=O)c1ccc(CCNC(=O)Cc2cccs2)cc1
7.28

Next item in the queue.
QUERY: Identify pKi associated with the compound NS(=O)(=O)c1ccc(CNC(=O)Cc2cccs2)cc1
RESULT: 7.28

---

Measured Ki on Carbonic anhydrase 1 (Homo sapiens, UniProt P00915) follows.
Sequence (P00915 whole entry): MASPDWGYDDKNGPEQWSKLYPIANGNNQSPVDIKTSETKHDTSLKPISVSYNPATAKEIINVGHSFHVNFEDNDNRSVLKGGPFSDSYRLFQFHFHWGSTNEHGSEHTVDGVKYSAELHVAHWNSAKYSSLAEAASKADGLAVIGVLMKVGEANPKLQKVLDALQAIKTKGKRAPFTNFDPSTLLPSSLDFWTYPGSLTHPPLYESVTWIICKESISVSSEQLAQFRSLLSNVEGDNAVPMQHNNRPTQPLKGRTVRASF

Take a look at these entries with their results.
NS(=O)(=O)c1ccc(CNC(=O)Cc2cccs2)cc1
60 nM
NS(=O)(=O)c1ccc(CCNC(=O)Cc2cccs2)cc1
68 nM

QUERY: Please indicate recorded Ki of NS(=O)(=O)c1ccc(NC(=O)Cc2ccccc2)cc1 measured with Carbonic anhydrase 1 (Homo sapiens, UniProt P00915).
RESULT: 108 nM
